These measurements were taken from patent US20150105252A1.

Would you kindly list Foxtail, Giant plant response rating for each of these molecules?
# Tested on: foxtail, giant
# TEST: Test A postemergence
# Type: in vivo, Setaria faberii
# SETUP CONDITIONS: Postemergence, 500 g ai/ha; 0 to 100 scale (0 no effect, 100 complete control)
Numbers only.

>  <QUERY SMILES>
CCCNC(=O)c1cc(CCCl)n(Cc2ccnc(C(F)(F)F)c2)n1

>  <MEASUREMENT TARGET>
foxtail, giant

>  <Foxtail, Giant plant response rating>
90

$$$$
>  <QUERY SMILES>
CCONC(=O)c1cc(CC)n(Cc2cc(C(F)(F)F)nn2CC)n1

>  <MEASUREMENT TARGET>
foxtail, giant

>  <Foxtail, Giant plant response rating>
80

$$$$
>  <QUERY SMILES>
CCCNC(=O)c1cc(C)n(Cc2ccnc(C(F)(F)F)c2)n1

>  <MEASUREMENT TARGET>
foxtail, giant

>  <Foxtail, Giant plant response rating>
90

$$$$
>  <QUERY SMILES>
CCCCc1cc(C(=O)NC2CC2)nn1Cc1ccnc(C(F)(F)F)c1

>  <MEASUREMENT TARGET>
foxtail, giant

>  <Foxtail, Giant plant response rating>
70

$$$$
>  <QUERY SMILES>
CCc1cc(C(=O)NC2CC2)nn1Cc1nc(C(F)(F)F)no1

>  <MEASUREMENT TARGET>
foxtail, giant

>  <Foxtail, Giant plant response rating>
80

$$$$
>  <QUERY SMILES>
CCc1cc(-c2ccc(C(F)(F)F)cc2)nn1C(=O)c1ccnc(C(F)(F)F)c1

>  <MEASUREMENT TARGET>
foxtail, giant

>  <Foxtail, Giant plant response rating>
10

$$$$
>  <QUERY SMILES>
CCNC(=O)c1cc(CCCl)n(Cc2ccnc(C(F)(F)F)c2)n1

>  <MEASUREMENT TARGET>
foxtail, giant

>  <Foxtail, Giant plant response rating>
90

$$$$

Now take the following molecule into account.
// query # Foxtail, Giant plant response rating lookup, item "CCCNC(=O)c1cc(CC)n(Cc2nc(C(F)(F)F)no2)n1"
// result 40

* * *

Assign Plant response rating, Crabgrass, Large to each entry below.
# Test system: crabgrass, large
# TEST: Test C postemergence
# Type: in vivo, Digitaria sanguinalis
# SETUP CONDITIONS: postemergence, 250 g ai/ha; scale 0 to 100 (0 no effect, 100 complete control)
One number for each entry.

Worked set:
>  <QUERY SMILES>
CCc1cc(C(=O)NCC2CC2)nn1Cc1ccnc(C(F)(F)F)c1

>  <MEASURED NUMBER>
60

$$$$
>  <QUERY SMILES>
CCc1cc(C(=O)NCC(F)(F)F)nn1Cc1cc(OC(F)F)nn1C

>  <MEASURED NUMBER>
5

$$$$
>  <QUERY SMILES>
CCc1cc(C(=O)NCC(F)(F)F)nn1Cc1ccnc(C(F)(F)F)c1

>  <MEASURED NUMBER>
90

$$$$

Take each entry in turn and give its Plant response rating, Crabgrass, Large.
1. CCNC(=O)c1cc(CC)n(Cc2ccnc(OC(F)F)c2)n1
2. CCCNC(=O)c1cc(CCC)n(Cc2cc(C(F)(F)F)nn2C)n1
3. CCCc1cc(C(=O)NCC)nn1Cc1ccnc(C(F)(F)F)c1

// result
1. 25
2. 30
3. 45

Hi there! I need Plant response rating, Crabgrass, Large for each item below, if you can.
1. CCCc1cc(C(=O)NOCC)nn1Cc1ccnc(C(F)(F)F)c1
2. CCOc1cc(C(=O)NC2CC2)nn1Cc1ccnc(C(F)(F)F)c1

// result
[45, 90]

* * *

# Test system: crabgrass, large
# TEST: Test A postemergence
# Type: in vivo, Digitaria sanguinalis
# SETUP CONDITIONS: Postemergence, 1000 g ai/ha; visual rating after approx. 10 days, 0 to 100 scale (0 no effect, 100 complete control)
Give measured Crabgrass, Large plant response rating for each item. Keep answers brief.
Numbers only.

Recorded results for 2 compounds are shown here.
>  <QUERY SMILES>
CCc1cc(C(=O)NCCOC)nn1Cc1cccc(OC(F)(F)F)c1

>  <Crabgrass, Large plant response rating>
10

$$$$
>  <QUERY SMILES>
CCCc1cc(C(=O)NCC)nn1Cc1cccc(C(F)(F)F)c1

>  <Crabgrass, Large plant response rating>
70

$$$$

Parameters: items (list). Returns: Crabgrass, Large plant response rating for each item.
1. C=CCNC(=O)c1cc(CC)n(Cc2cccc(C(F)(F)F)c2)n1
2. CCNC(=O)c1cc(CC)n(Cc2cccc(OC(F)(F)F)c2)n1

// result
1. 20
2. 80

* * *

# Test system: johnsongrass
# TEST: Test C preemergence
# Type: in vivo, Sorghum halepense
# SETUP CONDITIONS: preemergence, 31 g ai/ha; visual rating, scale 0 to 100 (0 no effect, 100 complete control), 13 to 15 days
# Description: […]
Please use TRUE whenever Johnsongrass plant response rating is not below 60, and FALSE whenever it is.

>  <QUERY SMILES>
CCc1cc(C(=O)NCC2CC2)nn1Cc1ccnc(C(F)(F)F)c1

>  <DISCRETE LABEL>
FALSE

$$$$
>  <QUERY SMILES>
CCNC(=O)c1cc(CCCl)n(Cc2ccnc(C(F)(F)F)c2)n1

>  <DISCRETE LABEL>
FALSE

$$$$
>  <QUERY SMILES>
CCCc1cc(C(=O)NCC(F)(F)F)nn1Cc1ccnc(C(F)(F)F)c1

>  <DISCRETE LABEL>
TRUE

$$$$
>  <QUERY SMILES>
CCCc1cc(C(=O)NOCC)nn1Cc1ccnc(C(F)(F)F)c1

>  <DISCRETE LABEL>
FALSE

$$$$
>  <QUERY SMILES>
CCNC(=O)c1cc(CC)n(Cc2ccnc(OC(F)F)c2)n1

>  <DISCRETE LABEL>
FALSE

$$$$
>  <QUERY SMILES>
CCc1cc(C(=O)NC2CC2)nn1Cc1ccnc(OC(F)F)c1

>  <DISCRETE LABEL>
TRUE

$$$$
>  <QUERY SMILES>
Cc1cc(C(=O)NC(C)C)nn1Cc1ccnc(C(F)(F)F)c1

>  <DISCRETE LABEL>
FALSE

$$$$
>  <QUERY SMILES>
CCc1cc(C(=O)NC(C)C)nn1Cc1ccnc(C(F)(F)F)c1

>  <DISCRETE LABEL>
TRUE

$$$$

Now take the following compound into account.
// query Threshold query (Johnsongrass plant response rating >= 60) on "CCOc1cc(C(=O)NCC(F)(F)F)nn1Cc1ccnc(C(F)(F)F)c1"
// result TRUE

* * *

Would you mind telling me the reported Plant response rating, Galium of each entry?
# System: galium
# TEST: Test C postemergence
# Format: in vivo, Galium aparine
# SETUP CONDITIONS: postemergence; 125 g ai/ha; scale 0 to 100, 0 no effect, 100 complete control

>  <COMPOUND>
Cc1cc(C(=O)NC(C)C)nn1Cc1ccnc(C(F)(F)F)c1 [Compound 197]

>  <RESULT>
50

$$$$
>  <COMPOUND>
CCc1cc(C(=O)NCC2CC2)nn1Cc1ccnc(C(F)(F)F)c1 [Compound 199]

>  <RESULT>
80

$$$$
>  <COMPOUND>
CCNC(=O)c1cc(CC)n(Cc2ccnc(OC(F)F)c2)n1 [Compound 130]

>  <RESULT>
65

$$$$
>  <COMPOUND>
CCCNC(=O)c1cc(CC)n(Cc2ccnc(OC(F)F)c2)n1 [Compound 132]

>  <RESULT>
60

$$$$

Quick batch: Plant response rating, Galium for everything below.
1. CCc1cc(C(=O)NCC(F)(F)F)nn1Cc1cc(OC(F)F)nn1C [Compound 206]
2. CCCc1cc(C(=O)NOCC)nn1Cc1ccnc(C(F)(F)F)c1 [Compound 185]
3. CCc1cc(C(=O)NC(C)C)nn1Cc1ccnc(C(F)(F)F)c1 [Compound 103]
4. CCOc1cc(C(=O)NC(C)C)nn1Cc1ccnc(C(F)(F)F)c1 [Compound 188]

// result
1. 60
2. 45
3. 75
4. 90

* * *

Assignment: determine reported Wheat plant response rating for the given compounds.
# Tested on: wheat
# TEST: Test A preemergence
# Assay type: in vivo, Triticum aestivum
# SETUP CONDITIONS: Preemergence, 1000 g ai/ha; 0 to 100 scale, 0 no effect, 100 complete control
Numbers only.

Examples with answers:
>  <QUERY SMILES>
CCNC(=O)c1cc(CC)n(Cc2cccc(C(F)(F)F)c2)n1

>  <MEASURED NUMBER>
20

$$$$
>  <QUERY SMILES>
CCCCNC(=O)c1cc(CC)n(Cc2cccc(C(F)(F)F)c2)n1

>  <MEASURED NUMBER>
0

$$$$
>  <QUERY SMILES>
C=CCNC(=O)c1cc(CC)n(Cc2cccc(C(F)(F)F)c2)n1

>  <MEASURED NUMBER>
0

$$$$

Can you give me Wheat plant response rating for all of these, one by one?
1. CCNC(=O)c1cc(SC)n(Cc2cccc(C(F)(F)F)c2)n1
2. CCc1cc(C(=O)NC)nn1Cc1cccc(OC(F)(F)F)c1
3. CCCc1cc(C(=O)NCC)nn1Cc1cccc(C(F)(F)F)c1
4. CCNC(=O)c1cc(CC)n(Cc2cccc(OC(F)(F)F)c2)n1
5. CCc1cc(C(=O)NCC(C)(C)C)nn1Cc1cccc(C(F)(F)F)c1

// result
1: 0; 2: 0; 3: 10; 4: 10; 5: 0
